Hi there, I'd appreciate the recorded pIC50 for every entry that follows.
# tgt: IRE1α (Homo sapiens, UniProt O75460, D688N)
# Construct: containing the kinase and RNase domains (KR, AA G547-1L977, D688N)
# Sequence (O75460 547-977 D688N): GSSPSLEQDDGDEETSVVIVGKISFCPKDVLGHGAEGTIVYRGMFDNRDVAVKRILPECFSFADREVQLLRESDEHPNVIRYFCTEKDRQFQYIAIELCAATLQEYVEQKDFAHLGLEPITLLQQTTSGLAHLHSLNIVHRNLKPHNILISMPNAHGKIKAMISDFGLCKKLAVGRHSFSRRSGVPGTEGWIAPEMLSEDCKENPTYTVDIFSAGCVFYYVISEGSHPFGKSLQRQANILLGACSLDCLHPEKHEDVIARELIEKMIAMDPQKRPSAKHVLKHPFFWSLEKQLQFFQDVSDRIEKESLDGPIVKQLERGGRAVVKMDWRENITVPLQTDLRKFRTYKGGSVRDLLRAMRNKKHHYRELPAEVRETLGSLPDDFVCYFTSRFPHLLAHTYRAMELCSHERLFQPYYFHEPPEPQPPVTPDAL
# assay: IRE1α TR-FRET competition binding assay (IRE1α HTRF)
# condition label: His-tagged IRE1α kinase dead construct (KR, D688N) 0.25 nM; Alexa fluor 647-labeled ATP competitive probe 2 nM; one hour at room temperature; read-out: IRE1α (alpha) HTRF (IC50)
One number for each entry, as −log10 of the molar value.

molecule	tgt	assay result
Cc1nc(NS(=O)(=O)c2ccccc2Cl)ccc1-c1cc(C(F)F)c2nc(N[C@H]3CC[C@H](N(C)C)CC3)ncc2n1	IRE1α (Homo sapiens, UniProt O75460, D688N)	9.60
CCc1cc(-c2ccc(NS(=O)(=O)c3ccccc3F)nc2C)nc2cnc(N[C@H]3CC[C@H](N(C)C)CC3)nc12	IRE1α (Homo sapiens, UniProt O75460, D688N)	9.68
Cc1cc(NS(=O)(=O)c2ccccc2Cl)ncc1-c1cc(C)c2nc(N[C@H]3CC[C@H](N(C)C)CC3)ncc2n1	IRE1α (Homo sapiens, UniProt O75460, D688N)	8.48
Cc1cc(-c2ccc(NS(=O)(=O)c3ccccc3Cl)c(F)c2)nc2cnc(N[C@H]3CC[C@H](N(C)C)CC3)nc12	IRE1α (Homo sapiens, UniProt O75460, D688N)	9.80
Cc1cc(-c2ccc(NS(=O)(=O)Cc3ccc(F)cc3)c(F)c2F)nc2cnc(N[C@H]3CC[C@H](N(C)C)CC3)nc12	IRE1α (Homo sapiens, UniProt O75460, D688N)	9.64

Query block: Form field: reported pIC50 of CC(Oc1nc2nc(N[C@@H]3CNC[C@@H](F)C3)ncc2cc1-c1ccc(NS(=O)(=O)Cc2ccccc2)c(F)c1F)C(F)F (single isomer, unassigned) [Compound 102]
Result block: 8.96

Values were extracted from patent US20220204498A1.
